Source: PubChem BioAssay (EPA / NIEHS)

- Tested on: NCBI gene 100848466
- protocol: NVS_NR_bPR: NovaScreen (NVS) Nuclear Receptor Binding Assay for bovine Progextron Receptor (PR) (AID 2283343);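 note: actives lower bound radioligand signal below DMSO meaning displacement of the label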
Results filed as inconclusive are left out. Activity calls are given as the source filed them. Rule for the calls: active = hit-call score of the fitted dose curve at least 0.9, where 1 is the maximum; inconclusive = response in the unintended direction; inactive = score below 0.9.
Listing: AC50 of selected compounds

Example results:
Jot down AC50 (NCBI gene 100848466) of `C[C@]12CCC(=O)C=C1CC[C@@H]1[C@@H]2CC[C@@]2(C)[C@H]1CC[C@]2(C)O` . 0.149 µM (active)

Write down the reported AC50 (system: NCBI gene 100848466) of `CC(C)(c1ccccc1)c1ccc(O)cc1` 19.2 µM (active)

Proceed to the following item.
// fetch AC50 for `CC(C)(O)C(=O)Nc1ccc([N+](=O)[O-])c(C(F)(F)F)c1` ; system: NCBI gene 100848466 4.47 µM (active)

====

- Read-out: TIMP metallopeptidase inhibitor 2 (TIMP2), TIMP2 (gene 7077)
- protocol: BSK_KF3CT_TIMP2: BioMAP Diversity Plus: KF3CT Assay for TIMP metallopeptidase inhibitor 2 (TIMP2) Biomarker Activity (AID 2283071)
- protocol-conditions: primary human keratinocytes with fibroblasts; actives raise or lower the signal
Calls of active or inactive are those of the source. Rule for the calls: active = hit-call score of the fitted dose curve at least 0.9, where 1 is the maximum; inactive = score below 0.9.
// one of true (1) = active, false (0) = inactive, no free text

# fetch the recorded call for C1CC2OC2CC1C1CO1 (stereo unspecified) here false (0)

Entry `COS(=O)(=O)OC` : call = ? false (0)

Just curious, what result did `CC(C)(c1ccccc1)c1ccc(O)cc1` get here? true (1)

// param item: `O=S(=O)(O)C(F)(F)C(F)(F)C(F)(F)C(F)(F)F` ; yields the recorded call false (0)

Recorded test outcome, item `Cc1cc2c3c(c1)C(c1ccccc1)=N[C@@H](NC(=O)c1ccncc1)C(=O)N3CC2` false (0)

Lab note: next compound to report on.
Status in this test for `ClC1=C(Cl)[C@]2(Cl)[C@@H]3[C@@H]4C[C@@H]([C@H]5O[C@@H]45)[C@@H]3[C@@]1(Cl)C2(Cl)Cl` ? false (0)

====

- tested-on: human Norepinephrine Transporter (NET), SLC6A2 (gene 6530) (UniProt P23975)
- Sequence (P23975 whole entry, looked up): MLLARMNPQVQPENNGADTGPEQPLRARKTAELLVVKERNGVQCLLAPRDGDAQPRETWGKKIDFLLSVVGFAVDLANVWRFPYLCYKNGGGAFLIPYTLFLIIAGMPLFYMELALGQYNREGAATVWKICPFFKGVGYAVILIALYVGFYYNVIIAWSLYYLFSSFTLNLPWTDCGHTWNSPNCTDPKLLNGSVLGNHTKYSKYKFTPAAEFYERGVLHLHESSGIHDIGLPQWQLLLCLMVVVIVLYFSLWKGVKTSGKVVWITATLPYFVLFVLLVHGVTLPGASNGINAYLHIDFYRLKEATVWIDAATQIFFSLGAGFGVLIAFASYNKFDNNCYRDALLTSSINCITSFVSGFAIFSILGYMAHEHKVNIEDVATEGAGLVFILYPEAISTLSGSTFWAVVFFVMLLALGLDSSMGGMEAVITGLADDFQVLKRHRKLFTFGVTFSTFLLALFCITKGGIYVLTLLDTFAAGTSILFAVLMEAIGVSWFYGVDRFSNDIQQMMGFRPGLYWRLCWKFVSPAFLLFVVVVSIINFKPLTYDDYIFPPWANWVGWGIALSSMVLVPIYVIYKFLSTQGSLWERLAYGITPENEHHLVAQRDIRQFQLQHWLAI
- protocol: NVS_TR_hNET: NovaScreen (NVS) Transporter Assay for human Norepinephrine Transporter (NET) (AID 2283377);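 note: cell-free membrane protein extracted from CHO cells expressing human NET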
Results filed as inconclusive are left out. Calls of active or inactive are those of the source. Rule for the calls: active = hit-call score of the fitted dose curve at least 0.9, where 1 is the maximum; inconclusive = response in the unintended direction; inactive = score below 0.9.
Parameter call: string, one of active, inactive

Answered cases to consult:
Entry `Cc1ccc(O)c(C)c1` : call = ? active

State the result this test recorded for `CC#Cc1cc(C)nc(Nc2ccccc2)n1` . inactive

New cases:
What outcome does the record of this test show for `CCOC(=O)C(O)(c1ccc(Cl)cc1)c1ccc(Cl)cc1` ? active

Record lookup: outcome of this test for `O=NN(c1ccccc1)c1ccccc1` ? active

Tell me the assay call for `CCCCCCCCCC[N+](C)(C)CCCCCCCCCC` please. active

Returns: the outcome recorded for `O=C(O)C(F)(F)C(F)(F)C(F)(F)C(F)(F)C(F)(F)C(F)(F)C(F)(F)C(F)(F)C(F)(F)F` in this assay. active

What is the recorded call for this compound in the test? CC(C)C(=O)OCC(C)(C)C(OC(=O)C(C)C)C(C)C (stereo unspecified) inactive

Look up the recorded call for `Nc1ccc(-c2ccc(N)cc2)cc1` in this test. active

Write down the call the test reported for this compound. Item: `Oc1ccc(Cl)cc1Cl` active

For `CCC(C)(c1ccc(O)cc1)c1ccc(O)cc1` , which call appears in the assay record? active

Test call for this compound, please: `c1ccc(-c2ccccc2)cc1` inactive

====

- protocol: CCTE_Padilla_ZF_Score.Any: CCTE's 144 Hour Post-fertilization zebrafish Assay Score for Any Mortality or Malformation, Padilla Lab (AID 2284416)
Active and inactive are the calls of the source. The calls were made as follows: active = hit-call score of the fitted dose curve at least 0.9, where 1 is the maximum; inactive = score below 0.9.
assay-endpoint: AC50

// solved cases for AC50 follow
Please supply the value of reported AC50 for the item `O=S(=O)(O)C(F)(F)C(F)(F)C(F)(F)C(F)(F)F` inactive

Provide one value: measured AC50 of `O=C(O)C(F)(F)C(F)(F)C(F)(F)C(F)(F)C(F)(F)C(F)(F)C(F)(F)C(F)(F)F` 29.1 µM (active)

Return reported AC50. Input compound: `O=C(O)C(F)(F)C(F)(F)C(F)(F)C(F)(F)C(F)(F)C(F)(F)C(F)(F)C(F)(F)C(F)(F)F` 10.7 µM (active)

Recall and state the measured AC50 for `O=C(O)C(F)(F)C(F)(F)C(F)(F)C(F)(F)C(F)(F)F` . inactive

Others:
Dear colleague, please send me the reported AC50 for `NS(=O)(=O)C(F)(F)C(F)(F)C(F)(F)C(F)(F)C(F)(F)C(F)(F)C(F)(F)C(F)(F)F` when you can. 0.747 µM (active)

====

- protocol: ATG_AP_1_CIS: Attagene CIS-FACTORIAL HepG2 Assay for human Activator Protein 1 (AP-1) (AID 2282931)
- protocol-conditions: HepG2 Attagene cis-factorial AP-1 reporter mRNA; actives raise or lower the signal
- Protocol: ATG_CIS is a cell-based, multiplexed-readout assay that uses HepG2, a human liver cell line, with measurements taken at 24 hours after chemical dosing in a 24-well plate.ATG_AP_1_CIS is one of 52 assay component(s) measured or calculated from the ATG_CIS assay. […] This assay endpoint, ATG_AP_1_CIS, was analyzed with bidirectional fitting relative to DMSO as the negative control and baseline of activity. […]
Activity calls are given as the source filed them. How the source made its calls: active means hit-call score of the fitted dose curve at least 0.9, where 1 is the maximum; inactive means score below 0.9.
Returns: one label drawn from active, inactive

Examples from the recorded data:
Any idea what this test logged for `CC(C)(c1ccccc1)c1ccc(O)cc1` ? active

Returns: the outcome recorded for `CC#Cc1cc(C)nc(Nc2ccccc2)n1` in this assay. inactive

Which outcome did this test record for the compound `O=NN(c1ccccc1)c1ccccc1` ? active

Tell me the assay call for `O=C(NC(=O)c1cc(F)c(F)cc1Cl)Nc1cc(F)ccc1N1CCC(C(=O)O)CC1` please. inactive

Kindly review the next compound as well.
Any idea what this test logged for `C=CC(=O)NCNC(=O)C=C` ? inactive

====

- Read-out: BCL2L11 (gene 10018)
- protocol: LTEA_HepaRG_BCL2L11: Life Technologies and Expression Analysis (LTEA) Assay for Bcl-2 (BCL2L11) gene using HepaRG (AID 2283473)
- protocol-conditions: mRNA level, 48 h; actives raise or lower the signal
The source made the active and inactive calls. Rule for the calls: active = hit-call score of the fitted dose curve at least 0.9, where 1 is the maximum; inactive = score below 0.9.
Outcome (select one): class 1 (active), class 0 (inactive)

Completed entries (count: 10):
Outcome? `NS(=O)(=O)C(F)(F)C(F)(F)C(F)(F)C(F)(F)C(F)(F)C(F)(F)C(F)(F)C(F)(F)F` class 1

Please share the test call associated with `CN(C)c1nc(=O)n(C2CCCCC2)c(=O)n1C` . class 0

Hi, do you know how `O=C(O)C(F)(F)C(F)(F)C(F)(F)C(F)(F)C(F)(F)F` came out in this test? class 0

Test call for this compound, please: `CC1=C2C[C@H]3[C@@H](CC=C4C[C@@H](O)CC[C@@]43C)[C@@H]2CC[C@]12O[C@@H]1C[C@H](C)CN[C@H]1[C@H]2C` class 0

# lookup: test call for `ClC1=C(Cl)[C@]2(Cl)[C@@H]3[C@@H](Cl)[C@H]4O[C@H]4[C@@H]3C1(Cl)C2(Cl)Cl` class 0

Recorded call for `CC#Cc1cc(C)nc(Nc2ccccc2)n1` ? class 1

How did this test come out for `c1ccc(-c2ccccc2)cc1` ? class 0

Can you look up the reported call for `Cc1cc(O)ccc1Cl` for me? class 0

Dear all, I need the recorded test outcome for C1CC2OC2CC1C1CO1 (centres undefined) , thank you. class 0

Status in this test for `Oc1ccc(C(c2ccc(O)cc2)(C(F)(F)F)C(F)(F)F)cc1` ? class 1

Next:
Assay result, entry `CC(C)(c1ccccc1)c1ccc(O)cc1` — outcome? class 0

Test call for this compound, please: `O=C(NC(=O)c1cc(F)c(F)cc1Cl)Nc1cc(F)ccc1N1CCC(C(=O)O)CC1` class 0

Please state the recorded outcome for this compound: `Nc1ccc(-c2ccc(N)cc2)cc1` class 0

// outcome(item) with item = `O=C(N[C@H]1CN2CCC1CC2)c1cc2ccoc2cn1` class 0

Hi, do you know how `O=C(O)C(F)(F)C(F)(F)C(F)(F)C(F)(F)C(F)(F)C(F)(F)C(F)(F)C(F)(F)C(F)(F)F` came out in this test? class 1

Recorded call for CCC(C)c1cc([N+](=O)[O-])cc([N+](=O)[O-])c1O (centres undefined) ? class 1

Entry `O=C(NC(=O)c1c(F)cccc1F)Nc1cc(Cl)c(OC(F)(F)C(F)F)c(Cl)c1` : call = ? class 0

Assay outcome for `Cc1ccccc1[N+](=O)[O-]` : what was it? class 0

I'd appreciate the recorded outcome for `Oc1c(Cl)c(Cl)c(Cl)c(Cl)c1Cl` from this test. class 1

Please share the test call associated with `Cc1ccccc1CO[C@@H]1C[C@@]2(C(C)C)CC[C@]1(C)O2` . class 0

Field: outcome | Entry: `COS(=O)(=O)OC` class 0

Record lookup: outcome of this test for `Clc1ccc(C(Cl)(Cl)Cl)cc1` ? class 0

Hello, I am checking results. What call was entered for `CCSC(=O)N(CC)C1CCCCC1` ? class 0

// param item: CC(C)C(=O)OCC(C)(C)C(OC(=O)C(C)C)C(C)C (centres undefined) ; yields the recorded call class 0
